The reported numbers originate from patent US20170233497A1.

The reader will find reported fold-difference values listed item by item below.
# TGT: the molecule itself
# PROTOCOL DESCRIPTION: native mass spectrometry; KD compared to the wild type IgG4 CH2-CH3 fragment
RECORDED ENDPOINT: fold-difference

[
  {
    "PROTEIN": "CH2-CH3 fragment of human IgG4 with K370Q (other, UniProt P01861-1 221-327, looked up, name in EU numbering, range 341-447; As m7, with the mutation; also called G4-K370Q; not shown: N-terminal 6 amino acid His tag) GQPREPQVYTLPPSQEEMTKNQVSLTCLVQGFYPSDIAVEWESNGQPENNYKTTPPVLDSDGSFFLYSRLTVDKSRWQEGNVFSCSVMHEALHNHYTQKSLSLSLGK",
    "RECORDED ENDPOINT": "fold-difference",
    "REPORTED": "4.3 fold"
  },
  {
    "PROTEIN": "CH2-CH3 fragment of human IgG4 with E357T (other, UniProt P01861-1 221-327, looked up, name in EU numbering, range 341-447; As m7, with the mutation; also called G4-E357T; not shown: N-terminal 6 amino acid His tag) GQPREPQVYTLPPSQETMTKNQVSLTCLVKGFYPSDIAVEWESNGQPENNYKTTPPVLDSDGSFFLYSRLTVDKSRWQEGNVFSCSVMHEALHNHYTQKSLSLSLGK",
    "RECORDED ENDPOINT": "fold-difference",
    "REPORTED": "0.0012 fold"
  },
  {
    "PROTEIN": "CH2-CH3 fragment of human IgG4 with R409W (other, UniProt P01861-1 221-327, looked up, name in EU numbering, range 341-447; As m7, with the mutation; also called G4-R409W; not shown: N-terminal 6 amino acid His tag) GQPREPQVYTLPPSQEEMTKNQVSLTCLVKGFYPSDIAVEWESNGQPENNYKTTPPVLDSDGSFFLYSWLTVDKSRWQEGNVFSCSVMHEALHNHYTQKSLSLSLGK",
    "RECORDED ENDPOINT": "fold-difference",
    "REPORTED": "0.0014 fold"
  },
  {
    "PROTEIN": "CH2-CH3 fragment of human IgG4 with R409K (other, UniProt P01861-1 221-327, looked up, name in EU numbering, range 341-447; As m7, with the mutation; also called G4-R409K; not shown: N-terminal 6 amino acid His tag) GQPREPQVYTLPPSQEEMTKNQVSLTCLVKGFYPSDIAVEWESNGQPENNYKTTPPVLDSDGSFFLYSKLTVDKSRWQEGNVFSCSVMHEALHNHYTQKSLSLSLGK",
    "RECORDED ENDPOINT": "fold-difference",
    "REPORTED": "6 fold"
  },
  {
    "PROTEIN": "CH2-CH3 fragment of human IgG4 with L351K (other, UniProt P01861-1 221-327, looked up, name in EU numbering, range 341-447; As m7, with the mutation; also called G4-L351K; not shown: N-terminal 6 amino acid His tag) GQPREPQVYTKPPSQEEMTKNQVSLTCLVKGFYPSDIAVEWESNGQPENNYKTTPPVLDSDGSFFLYSRLTVDKSRWQEGNVFSCSVMHEALHNHYTQKSLSLSLGK",
    "RECORDED ENDPOINT": "fold-difference",
    "REPORTED": "0.06 fold"
  },
  {
    "PROTEIN": "CH2-CH3 fragment of human IgG4 with R409A (other, UniProt P01861-1 221-327, looked up, name in EU numbering, range 341-447; As m7, with the mutation; also called G4-R409A; not shown: N-terminal 6 amino acid His tag) GQPREPQVYTLPPSQEEMTKNQVSLTCLVKGFYPSDIAVEWESNGQPENNYKTTPPVLDSDGSFFLYSALTVDKSRWQEGNVFSCSVMHEALHNHYTQKSLSLSLGK",
    "RECORDED ENDPOINT": "fold-difference",
    "REPORTED": "0.3 fold"
  }
]
